Recorded values, source patent US10774083B2.

# System under test: human PRS protein (His-Avi-hEPRS (998-1512)) (Homo sapiens, UniProt P07814)
# Construct: to construct His-Avi-hEPRS (998-1512) expression plasmid; His tag (N); Avi tag (N); TEV cleavage site (ENLYFQG, then S; inferred from the forward primer hEPRS-TEV-NheF) (N); made in house; host or cells: E. coli BL21(DE3)
# Procedure text: PRS inhibitory activity ([32P]pyrophosphate exchange enzyme assay)
# Format: biochemical
# Cond: 300 nM test compound; read-out: inhibitory rate (%) of PRS
Measured metric: inhibition at 0.3 µM (%)

Cc1cc(N2CC[C@@](C#N)(C3CC3)C2=O)nc(C(=O)NCc2cc(F)cc(-c3cnn(C)c3)c2)n1 : 101
Cn1cc(-c2cc(F)cc(CNC(=O)c3nccc4nc(Cc5ccccc5)[nH]c34)c2)cn1 : 100
Cc1cc(N2CC[C@@](C#N)(C3CC3)C2=O)cc(C(=O)NCc2cc(F)cc(-c3cncnc3)c2)n1 : 86
COc1nc(C(=O)NCc2cc(F)cc(-c3cnn(C)c3)c2)c2[nH]c(C3CCCC3)nc2n1 : 99

###

# System under test: human PRS protein (His-Avi-hEPRS (998-1512)) (Homo sapiens)
# Construct: to construct His-Avi-hEPRS (998-1512) expression plasmid; His tag (N); Avi tag (N); TEV cleavage site (ENLYFQG, then S; inferred from the forward primer hEPRS-TEV-NheF) (N); made in house; host or cells: E. coli BL21(DE3)
# Sequence (P07814 998-1512 limits assumed): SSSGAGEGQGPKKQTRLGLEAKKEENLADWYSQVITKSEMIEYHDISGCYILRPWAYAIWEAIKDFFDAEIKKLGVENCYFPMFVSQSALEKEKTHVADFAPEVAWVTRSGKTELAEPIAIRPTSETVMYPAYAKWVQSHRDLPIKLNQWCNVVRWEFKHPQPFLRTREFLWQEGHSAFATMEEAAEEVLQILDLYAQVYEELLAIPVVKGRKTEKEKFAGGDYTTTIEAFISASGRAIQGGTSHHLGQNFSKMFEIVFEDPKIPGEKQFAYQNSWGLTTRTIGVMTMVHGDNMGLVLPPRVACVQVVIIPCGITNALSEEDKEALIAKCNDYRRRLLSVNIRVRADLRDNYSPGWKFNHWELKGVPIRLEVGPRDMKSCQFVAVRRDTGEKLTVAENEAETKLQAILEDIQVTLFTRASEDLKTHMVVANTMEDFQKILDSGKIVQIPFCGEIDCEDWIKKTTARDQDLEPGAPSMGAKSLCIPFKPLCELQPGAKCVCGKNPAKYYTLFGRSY
# Procedure text: PRS inhibitory activity ([32P]pyrophosphate exchange enzyme assay)
# Assay type: biochemical
# Cond: 300 nM test compound; read-out: inhibitory rate (%) of PRS
# Description: The PRS inhibitory activity of the compounds of the present invention was evaluated by the following method. […] Recombinant human PRS protein was prepared by transforming the His-Avi-hEPRS (998-1512) expression plasmid prepared above into ECOS Competent E. coli BL21(DE3) (NIPPON GENE CO., LTD.). […] The protein concentration was measured using BCA Protein Assay Kit (PIERCE) and BSA as the standard. […]
Measured metric: inhibition at 0.3 µM (%)

Cn1cc(-c2cc(F)cc(CNC(=O)c3nccc4nc(C5CCCC5)n(C)c34)c2)nn1 : 101
Cc1cc(N2CC[C@@](C#N)(C3CC3)C2=O)cc(C(=O)NCc2cc(C#N)cc(-c3cnn(C)c3)c2)n1 : 99
Cc1cc(N2CCC(C3CC3)C2=O)cc(C(=O)NCc2cc(F)cc(-c3cnn(C)c3)c2)n1 (stereo not shown) : 87
Cn1cc(-c2cc(F)cc(CNC(=O)c3cc(N4CC[C@@](C#N)(C5CC5)C4=O)ccn3)c2)ccc1=O : 87

###

# System under test: human PRS protein (His-Avi-hEPRS (998-1512)) (Homo sapiens, UniProt P07814)
# Construct: to construct His-Avi-hEPRS (998-1512) expression plasmid; His tag (N); Avi tag (N); TEV cleavage site (ENLYFQG, then S; inferred from the forward primer hEPRS-TEV-NheF) (N); made in house; host or cells: E. coli BL21(DE3)
# Procedure text: PRS inhibitory activity ([32P]pyrophosphate exchange enzyme assay)
# Type: biochemical
# Cond: 300 nM test compound; read-out: inhibitory rate (%) of PRS
Measured metric: inhibition at 0.3 µM (%)

Cc1nc(C(=O)NCc2cc(F)cc(-c3cnn(C)c3)c2)cc(N2CC[C@@](C#N)(C3CC3)C2=O)n1 [Example 237] : 74
CCc1cc(N2CC[C@@](C#N)(C3CC3)C2=O)cc(C(=O)NCc2cc(F)cc(-c3cnn(C)c3)c2)n1 [Example 219] : 94
Cn1c(C2CCCC2)nc2ccnc(C(=O)NCc3ccccc3Cl)c21 [Example 85] : 97
Cc1cn(-c2cc(F)cc(CNC(=O)c3cc(N4CC[C@@](C#N)(C5CC5)C4=O)cc(C)n3)c2)cn1 [Example 228] : 100
Cn1cc(-c2cc(F)cc(CNC(=O)c3nc(Cl)nc4nc(C5CCCC5)[nH]c34)c2)cn1 [Example 12] : 77
O=C(NCc1cccc(-c2ccccc2)c1)c1nccc2nc(C3CCCC3)[nH]c12 [Example 83] : 98
Cc1cc(N2CC[C@@](C#N)(C3CC3)C2=O)cc(C(=O)NCc2cc(F)cc(-c3cnn(C4CCOCC4)c3)c2)n1 [Example 182] : 101
Cc1nc(C(=O)NCc2cc(F)cc(-c3cnn(C)c3)c2)c2[nH]c(C3CCCC3)nc2n1 [Example 13] : 86
Cn1cc(-c2cc(C#N)cc(CNC(=O)c3ncnc4nc(C5CCCO5)n(C)c34)c2)cn1 (stereo not shown) [Example 23] : 102
Cn1cc(-c2cc(F)cc(CNC(=O)c3ncnc4nc(C5CCCCO5)[nH]c34)c2)cn1 (stereo not shown) [Example 31] : 102
O=C(NCc1cc(F)cc(-c2cnn(C3CC3)c2)c1)c1ncnc2nc(C3CCCC3)[nH]c12 [Example 14] : 100
Cc1cc(N2CCC3(CC3)C2=O)cc(C(=O)NCc2cc(F)cc(-c3cnn(C)c3)c2)n1 [Example 233] : 100
Cc1cc(N2CCN(C(C)C)C2=O)cc(C(=O)NCc2cc(F)cc(-c3cnn(C)c3)c2)n1 [Example 226] : 91
Cc1cc(CNC(=O)c2cc(N3CC[C@@](C#N)(C4CC4)C3=O)cc(C)n2)cc(-c2cnn(C)c2)c1 [Example 217] : 101
O=C(NCc1cccc(Br)c1)c1nccc2nc(C3CCCC3)[nH]c12 [Example 82] : 98
Cn1cc(-c2cc(F)cc(CNC(=O)c3nc(N)nc4nc(C5CCCC5)[nH]c34)c2)cn1 [Example 42] : 98
Cn1cc(-c2cc(F)cc(CNC(=O)c3nccc4nc(C5CCCC5)[nH]c34)c2)cn1 [Example 86] : 101
Cn1ncc2cccc(CNC(=O)c3nccc4nc(C5CCCC5)[nH]c34)c21 [Example 95] : 99
O=C(NCc1ccccc1Cl)c1ncnc2nc(C3CCCC3)[nH]c12 [Example 1] : 98
Cn1cc(-c2cc(F)cc(CNC(=O)c3nccc4nc(CC5CCCC5)[nH]c34)c2)cn1 [Example 104] : 98
Cc1cc(-c2cc(F)cc(CNC(=O)c3cc(N4CC[C@@](C#N)(C5CC5)C4=O)cc(C)n3)c2)cnn1 [Example 207] : 96
Cn1cc2c(CNC(=O)c3nccc4nc(C5CCCC5)[nH]c34)cccc2n1 [Example 94] : 97
Cn1cc(-c2ccnc(CNC(=O)c3nccc4nc(C5CCCC5)n(C)c34)n2)cn1 [Example 146] : 78
Cc1cc(N2OCC(C)(C)C2=O)cc(C(=O)NCc2cc(F)cc(-c3cnn(C)c3)c2)n1 [Example 179] : 93
Cn1cc(-c2cc(F)cc(CNC(=O)c3cc(N4CC[C@@](C#N)(C5CC5)C4=O)cc(C(F)F)n3)c2)cn1 [Example 214] : 99
Cn1cc(-c2cc(F)cc(CNC(=O)c3nccc4nc(C5CCOC5)n(C)c34)c2)cn1 (stereo not shown) [Example 117] : 100
Cn1cc(-c2csc(CNC(=O)c3cc(N4CC[C@@](C#N)(C5CC5)C4=O)ccn3)c2)cn1 [Example 157] : 85
Cn1cc(-c2cc(F)cc(CNC(=O)c3ncnc4nc(C5CCCCO5)n(C)c34)c2)cn1 (stereo not shown) [Example 63] : 102
Cn1ccc(-c2cc(F)cc(CNC(=O)c3nccc4nc(C5CCCC5)n(C)c34)c2)cc1=O [Example 98] : 101
Cn1cc(-c2cc(F)cc(CNC(=O)c3nccc4nc(C5CCCC5)[nH]c34)c2)nn1 [Example 89] : 101
COc1cc(N2CC[C@@](C#N)(C3CC3)C2=O)cc(C(=O)NCc2cc(F)cc(-c3cnn(C)c3)c2)n1 [Example 224] : 74
